Source: patent US11590116B2

# SUBJECT OF TEST: recombinant human ALK5 (TGF-βR1) protein (Homo sapiens, UniProt P36897)
# Construct: purchased Life Technologies PR9075A
# Sequence (P36897 34-503): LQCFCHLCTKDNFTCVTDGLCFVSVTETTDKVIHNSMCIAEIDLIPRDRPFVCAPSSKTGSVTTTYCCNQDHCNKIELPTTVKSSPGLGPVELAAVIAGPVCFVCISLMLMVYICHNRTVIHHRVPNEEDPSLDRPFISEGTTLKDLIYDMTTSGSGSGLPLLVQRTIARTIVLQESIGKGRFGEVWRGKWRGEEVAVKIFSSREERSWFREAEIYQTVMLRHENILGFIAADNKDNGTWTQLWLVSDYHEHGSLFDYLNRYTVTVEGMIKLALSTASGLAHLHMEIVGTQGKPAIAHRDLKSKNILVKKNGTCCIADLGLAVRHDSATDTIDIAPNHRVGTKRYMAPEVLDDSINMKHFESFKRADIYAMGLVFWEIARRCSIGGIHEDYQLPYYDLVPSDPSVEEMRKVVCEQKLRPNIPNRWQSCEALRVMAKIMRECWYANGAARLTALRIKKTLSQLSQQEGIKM
# EXPERIMENT SUMMARY: Biochemical ALK5 (TGF-βR1) assay to measure pKi (LANCE Ultra ULight kinase assay)
# TEST CONTEXT: apparent pKi from pIC50 by Cheng-Prusoff, read-out: ALK5 pKi (converted)
Listed here: items and their measured Ki.

Solved cases (5 shown):
# COMPOUND, MEASURE, TEST RESULT
data = [
    ("Cc1cccc(-c2[nH]cnc2-c2ccc3ncc(N4CCN(C)C(CC(=O)OCC5CNC5)C4)cc3c2)n1 (stereo not drawn)", "Ki", "0.0398 to 0.316 nM"),
    ("Cc1cccc(-c2n[nH]cc2-c2ccc3ncc(N4CC(C)N(CCN)C(C)C4)cc3n2)n1 (stereo not drawn)", "Ki", "0.0398 to 0.316 nM"),
    ("Cc1cccc(-c2[nH]cnc2-c2ccc3ncc(NC(=O)C4CCNCC4)cc3c2)n1", "Ki", "0.0398 to 0.316 nM"),
    ("Cc1cccc(-c2[nH]cnc2-c2ccc3ncc(-c4ccc(C(=O)OC5CCNCC5)s4)cc3c2)n1", "Ki", "0.0398 to 0.316 nM"),
    ("Cc1cccc(-c2[nH]cnc2-c2ccc3ncc(-c4ncc(C5=CCNC5)s4)cc3c2)n1", "Ki", "0.0398 to 0.316 nM"),
]

Kindly consider the entry below.
Noted Ki for Cc1cccc(-c2[nH]cnc2-c2ccc3ncc(-c4cccc(N5CC(N)C5)c4)cc3c2)n1 , tested on recombinant human ALK5 (TGF-βR1) protein (Homo sapiens, UniProt P36897): < 0.0316 nM

====

Listed here: items and their measured Ki.
# SUBJECT OF TEST: recombinant human ALK5 (TGF-βR1) protein (Homo sapiens)
# Construct: purchased Life Technologies PR9075A
# EXPERIMENT SUMMARY: Biochemical ALK5 (TGF-βR1) assay to measure pKi (LANCE Ultra ULight kinase assay)
# TEST CONTEXT: apparent pKi from pIC50 by Cheng-Prusoff, read-out: ALK5 pKi (converted)

Solved cases (3 shown):
# COMPOUND SMILES, SUBJECT OF TEST, Ki
rows = [
    ("Cc1cccc(-c2n[nH]cc2-c2ccc3ncc(CCCN4CCN(C(C)C)CC4)cc3n2)n1", "recombinant human ALK5 (TGF-βR1) protein (Homo sapiens)", "0.0398 to 0.316 nM"),
    ("Cc1cccc(-c2[nH]cnc2-c2ccc3ncc(C(=O)OCCN4CCNCC4)cc3c2)n1", "recombinant human ALK5 (TGF-βR1) protein (Homo sapiens)", "0.0398 to 0.316 nM"),
    ("Cc1cccc(-c2[nH]nnc2-c2ccc3ncc(N4CCCNCC4)cc3n2)n1", "recombinant human ALK5 (TGF-βR1) protein (Homo sapiens)", "3.98 to 31.6 nM"),
]

The recorded Ki for Cc1nc(-c2nc3ccccn3c2-c2ccc3ncc(-c4nc5n(n4)CCNC5)cc3n2)ccc1F is 0.0398 to 0.316 nM

The recorded Ki for Cc1cccc(-c2[nH]ncc2-c2ccc3nccc(C(=O)O[C@H]4CC[C@H](N)CC4)c3c2)n1 is 0.398 to 3.16 nM

====

# SUBJECT OF TEST: recombinant human ALK5 (TGF-βR1) protein (Homo sapiens, UniProt P36897)
# Construct: purchased Life Technologies PR9075A
# EXPERIMENT SUMMARY: Biochemical ALK5 (TGF-βR1) assay to measure pKi (LANCE Ultra ULight kinase assay)
# TEST CONTEXT: apparent pKi from pIC50 by Cheng-Prusoff, read-out: ALK5 pKi (converted)
MEASURE: Ki

# COMPOUND, TEST RESULT
data = [
    ("Cc1cccc(-c2[nH]cnc2-c2ccc3ncc(N4CCNC(CC(=O)OCC5CNC5)C4)cc3c2)n1 (stereo not shown)", "0.0398 to 0.316 nM"),
    ("Cc1nc(-c2[nH]cnc2-c2ccc3ncc(-c4cn[nH]c4)cc3c2)ccc1F", "< 0.0316 nM"),
    ("CNCCn1cc(-c2cnc3ccc(-c4c[nH]nc4-c4ccc(F)c(C)n4)nc3c2)cn1", "< 0.0316 nM"),
]

The recorded Ki for Cc1cccc(-c2[nH]cnc2-c2ccc3ncc(-c4ccc5c(c4)CNCC5)cc3c2)n1 is 0.0398 to 0.316 nM
